- STUDY TARGET: CYP3A4 (Homo sapiens)
- Sequence (P08684 whole entry): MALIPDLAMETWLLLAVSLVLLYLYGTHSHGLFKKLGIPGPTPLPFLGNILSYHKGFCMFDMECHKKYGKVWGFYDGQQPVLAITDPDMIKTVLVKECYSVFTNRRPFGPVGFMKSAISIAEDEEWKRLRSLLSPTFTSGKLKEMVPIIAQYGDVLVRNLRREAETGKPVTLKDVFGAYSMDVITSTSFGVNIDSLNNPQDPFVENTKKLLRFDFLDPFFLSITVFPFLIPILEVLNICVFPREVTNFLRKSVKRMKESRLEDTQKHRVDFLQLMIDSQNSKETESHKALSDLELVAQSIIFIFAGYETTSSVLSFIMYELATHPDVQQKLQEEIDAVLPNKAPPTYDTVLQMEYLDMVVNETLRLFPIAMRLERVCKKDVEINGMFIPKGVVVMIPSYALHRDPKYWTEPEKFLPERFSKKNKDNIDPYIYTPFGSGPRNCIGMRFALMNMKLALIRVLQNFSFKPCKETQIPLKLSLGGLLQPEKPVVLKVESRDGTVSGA
- EXPERIMENT DESCRIPTION: CYP450 inhibition CDNA-CYP3A4-BFC
- MEASUREMENT CONTEXT: 10 μM test compound, substrate BFC 150 μM, 30 min
- Source text: Assay 4: CYP450 Inhibition
# reported Cyp450 inhibition: CDNA-CYP3A4-BFC (% inhibition); entries follow
Dear colleague, please return just the value in %, with no unit written.

[
  {
    "SAMPLE SMILES": "CN(C)CCN(C[C@@H](O)[C@H](Cc1ccccc1)NC(=O)OCc1cncs1)C(=O)c1ccc2nc(N3CCCC3)oc2c1",
    "RESULT UNITS": "%",
    "NUMERIC VALUE": 95
  },
  {
    "SAMPLE SMILES": "O=C(N[C@@H](Cc1ccccc1)[C@H](O)CN(CCN1CCCC1)C(=O)c1ccc2nc(N3CCCC3)oc2c1)OCc1cncs1",
    "RESULT UNITS": "%",
    "NUMERIC VALUE": 91
  },
  {
    "SAMPLE SMILES": "CC(C)CN(C[C@@H](O)[C@H](Cc1ccccc1)NC(=O)OCc1cncs1)C(=O)c1ccc2nc(-c3ccncc3)oc2c1",
    "RESULT UNITS": "%",
    "NUMERIC VALUE": 97
  },
  {
    "SAMPLE SMILES": "O=C(N[C@@H](Cc1ccccc1)[C@H](O)CN(CC1CCC(F)(F)CC1)C(=O)c1ccc2nc(N3CCCC3)oc2c1)OCc1cncs1",
    "RESULT UNITS": "%",
    "NUMERIC VALUE": 95
  },
  {
    "SAMPLE SMILES": "CC(C)(C)CN(C[C@@H](O)[C@H](Cc1ccccc1)NC(=O)OCc1cncs1)C(=O)c1ccc2nc(N3CCCC3)oc2c1",
    "RESULT UNITS": "%",
    "NUMERIC VALUE": 97
  },
  {
    "SAMPLE SMILES": "CN(C[C@@H](O)[C@H](Cc1ccccc1)NC(=O)OCc1cncs1)C(=O)c1ccc2nc(N3CCCC3)oc2c1",
    "RESULT UNITS": "%",
    "NUMERIC VALUE": 96
  },
  {
    "SAMPLE SMILES": "CCNc1nc2ccc(C(=O)N(CC(C)C)C[C@@H](O)[C@H](Cc3ccccc3)NC(=O)OCc3cncs3)cc2o1",
    "RESULT UNITS": "%",
    "NUMERIC VALUE": 94
  },
  {
    "SAMPLE SMILES": "CC(C)(O)CN(C[C@@H](O)[C@H](Cc1ccccc1)NC(=O)OCc1cncs1)C(=O)c1ccc2nc(N3CCCC3)oc2c1",
    "RESULT UNITS": "%",
    "NUMERIC VALUE": 98
  },
  {
    "SAMPLE SMILES": "CC(C)CN(C[C@@H](O)[C@H](Cc1ccccc1)NC(=O)OCc1cncs1)C(=O)c1ccc2nc(NC3CCN(C)CC3)oc2c1",
    "RESULT UNITS": "%",
    "NUMERIC VALUE": 77
  }
]

With those in mind, consider the next compound.
// query Note Cyp450 inhibition: CDNA-CYP3A4-BFC (% inhibition) for the compound shown: O=C(N[C@@H](Cc1ccccc1)[C@H](O)CN(CCN1CCOCC1)C(=O)c1ccc2nc(N3CCCC3)oc2c1)OCc1cncs1
// result 96

The reported numbers originate from patent US8350048B2.
